- assayed-system: Proteasome component C5 (Homo sapiens) (UniProt P20618)
- Sequence (whole entry): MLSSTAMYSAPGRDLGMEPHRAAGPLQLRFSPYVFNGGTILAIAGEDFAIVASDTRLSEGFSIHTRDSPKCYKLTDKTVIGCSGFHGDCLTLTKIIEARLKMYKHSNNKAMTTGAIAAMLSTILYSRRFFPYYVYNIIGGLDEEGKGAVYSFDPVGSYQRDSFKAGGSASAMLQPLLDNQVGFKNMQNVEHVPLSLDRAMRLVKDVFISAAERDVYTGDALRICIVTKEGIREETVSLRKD
- test-description: Negative allosteric modulation of SDS-activated human erythrocytes 20S proteasome caspase like activity at lower concentration using Z-LLE-AMC as substrate measured every 2 mins up to 60 mins by fluorescence assay
The source made the active and inactive calls. The calls are words filed in the database; no cut-off is given here. Residues, ends and D or L forms follow the SMILES beside them.
endpoint-label: Activity

* CC(C)C[C@H](NC(=O)[C@H](Cc1ccc(O)cc1)NC(=O)[C@@H]1CCCN1C(=O)[C@@H]1CCCN1C(=O)[C@H](CCCNC(=N)N)NC(=O)[C@@H]1CCCN1C(=O)[C@H](CCCNC(=N)N)NC(=O)[C@H](CCCNC(=N)N)NC(=O)[C@@H](N)CCCNC(=N)N)C(=O)N1CCC[C@H]1C(=O)N[C@@H](CCCNC(=N)N)C(=O)N[C@@H](Cc1c[nH]c2ccccc12)C(=O)NCC(N)=O (H-RRRPRPPYLPRWG-NH2) | Active
* CC(C)C[C@H](NC(=O)[C@H](Cc1ccc(O)cc1)NC(=O)[C@@H]1CCCN1C(=O)[C@@H]1CCCN1C(=O)[C@H](CCCNC(=N)N)NC(=O)[C@@H]1CCCN1C(=O)[C@H](CCCNC(=N)N)NC(=O)[C@H](CCCNC(=N)N)NC(=O)[C@@H](N)CCCNC(=N)N)C(=O)N1CCC[C@H]1C(=O)N[C@@H](CCCNC(=N)N)C(=O)O (H-RRRPRPPYLPR-OH) | Active

###

- assayed-system: Proteasome Macropain subunit MB1 (Homo sapiens) (UniProt P28074)
- Sequence (P28074 whole entry): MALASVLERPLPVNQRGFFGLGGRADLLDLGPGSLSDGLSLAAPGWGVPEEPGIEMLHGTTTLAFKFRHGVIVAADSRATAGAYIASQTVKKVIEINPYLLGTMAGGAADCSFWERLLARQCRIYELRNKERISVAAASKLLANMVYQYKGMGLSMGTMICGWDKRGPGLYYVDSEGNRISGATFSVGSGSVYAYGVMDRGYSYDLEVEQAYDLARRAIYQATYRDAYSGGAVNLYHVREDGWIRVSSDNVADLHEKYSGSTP
- test-description: Positive allosteric modulation of latent human erythrocytes 20S proteasome chymotrypsin like activity up to 10 uM using LFP as substrate measured every 2 mins up to 60 mins by fluorescence assay
Active and inactive are the calls of the source. No cut-off for these calls is given here. Residues, ends and D or L forms follow the SMILES beside them.
endpoint-label: Activity

- CC(C)C[C@H](NC(=O)[C@H](Cc1ccc(O)cc1)NC(=O)[C@H](CCCNC(=N)N)NC(=O)[C@H](CCCNC(=N)N)NC(=O)[C@@H](N)CCCNC(=N)N)C(=O)N1CCC[C@H]1C(=O)N[C@@H](CCCNC(=N)N)C(=O)N[C@@H](Cc1c[nH]c2ccccc12)C(=O)NCC(N)=O (H-RRRYLPRWG-NH2): inactive
- CC(C)C[C@H](NC(=O)[C@H](Cc1ccc(O)cc1)NC(=O)[C@@H]1CCCN1C(=O)[C@@H]1CCCN1C(=O)[C@H](CCCNC(=N)N)NC(=O)[C@@H]1CCCN1C(=O)[C@H](CCCNC(=N)N)NC(=O)[C@H](CCCNC(=N)N)NC(=O)[C@@H](N)CCCNC(=N)N)C(=O)N1CCC[C@H]1C(=O)N[C@@H](CCCNC(=N)N)C(=O)O (H-RRRPRPPYLPR-OH): inactive
